// reported IC50 per item
# TARGET_SYSTEM: Mineralocorticoid receptor (Homo sapiens)
# Sequence (P08235 whole entry): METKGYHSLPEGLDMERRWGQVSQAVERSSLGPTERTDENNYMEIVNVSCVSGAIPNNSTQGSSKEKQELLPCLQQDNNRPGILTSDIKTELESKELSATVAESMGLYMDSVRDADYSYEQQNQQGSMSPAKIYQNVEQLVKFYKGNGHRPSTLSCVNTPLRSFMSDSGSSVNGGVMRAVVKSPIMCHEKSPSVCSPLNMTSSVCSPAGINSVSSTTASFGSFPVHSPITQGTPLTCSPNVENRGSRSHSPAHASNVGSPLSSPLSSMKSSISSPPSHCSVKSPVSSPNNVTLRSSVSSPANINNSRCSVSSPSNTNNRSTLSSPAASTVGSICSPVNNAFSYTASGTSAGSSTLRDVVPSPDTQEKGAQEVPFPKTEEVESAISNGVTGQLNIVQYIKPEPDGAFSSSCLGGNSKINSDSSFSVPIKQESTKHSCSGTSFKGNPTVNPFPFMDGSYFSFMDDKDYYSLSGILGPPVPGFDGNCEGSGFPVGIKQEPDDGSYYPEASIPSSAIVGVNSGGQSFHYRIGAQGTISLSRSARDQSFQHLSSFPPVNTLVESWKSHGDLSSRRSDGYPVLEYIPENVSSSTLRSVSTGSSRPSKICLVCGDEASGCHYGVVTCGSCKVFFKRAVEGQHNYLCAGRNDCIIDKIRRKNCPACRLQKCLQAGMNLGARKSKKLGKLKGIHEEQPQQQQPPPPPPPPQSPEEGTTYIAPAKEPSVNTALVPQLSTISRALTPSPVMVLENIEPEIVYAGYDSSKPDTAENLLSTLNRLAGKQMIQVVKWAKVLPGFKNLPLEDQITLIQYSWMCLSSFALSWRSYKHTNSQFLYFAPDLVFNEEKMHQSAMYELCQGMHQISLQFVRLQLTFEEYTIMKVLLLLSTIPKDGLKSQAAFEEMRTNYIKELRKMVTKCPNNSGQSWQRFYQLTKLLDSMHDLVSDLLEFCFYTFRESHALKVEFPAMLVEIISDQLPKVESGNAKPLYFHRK
# PROTOCOL_DESCRIPTION: Binding affinity to human recombinant mineralocorticoid receptor expressed in baculovirus infected Sf9 cells

Previously resolved entries follow.
1) COc1ccc(F)cc1C(C)(C)CC(O)(CNc1cccc2ccccc12)C(F)(F)F (stereo not drawn); > 1000 nM
2) CC(C)(CC(O)(CNc1cccc2ccccc12)C(F)(F)F)c1cc(F)ccc1O (stereo not drawn); > 1000 nM

Next up:
[ask] Please look up its IC50: COc1ccc(F)cc1C(C)(C)CC(O)(CNc1cccc2ncccc12)C(F)(F)F (stereo not drawn)
[reply] > 1000 nM
